Test system: NCI-H522 lung
ASSAY_OVERVIEW: NCI tumour cell line growth inhibition, 48 h
ENDPOINT_LABEL: TGI

// below: answered molecules
MOLECULE	TGI
CNC(=S)N/N=C(\C)c1nc2ncccc2[nH]1	> 73.3 µM
C/C=C/[C@H]1O[C@@](O)([C@@H](C)[C@H](O)[C@H](C)[C@H]2OC(=O)/C(OC)=C/C(C)=C/[C@@H](C)[C@@H](O)[C@@H](CC)[C@@H](O)[C@H](C)C/C(C)=C/C=C/[C@@H]2OC)C[C@H](OC2CC(O)C(OC(N)=O)C(C)O2)[C@@H]1C (some centres undefined)	7.39 µM
O=C(COc1ccc(Cl)cc1)N1CCN(C(=O)COc2ccc(Cl)cc2)c2ccccc21	> 100 µM

We now examine a further molecule.
What TGI value was documented for this molecule, Brc1cccc(-c2cc(-c3ccc4nccnc4c3)[nH]n2)c1 ?
> 250 µM
